assay: Log D shake flask method (octanol / PBS pH 7.4, HPLC); assay type: physicochemical; conditions: octanol/phosphate-buffered saline (PBS); octanol / PBS pH 7.4, shake flask

{"Molecule": "COC(=O)/C=C/CC[C@H](NC(=O)c1cncn1C)C(=O)Nc1cccn(CC(=O)NC23CC4(C)CC(C)(CC(C)(C4)C2)C3)c1=O", "logD": "3 to 5"}
{"Molecule": "COC(=O)/C=C/CC[C@H](NC(=O)c1cc2ccccc2[nH]1)C(=O)Nc1cccn(CC(=O)NC2C3CC4CC(C3)CC2C4)c1=O (stereo partly drawn)", "logD": "3 to 5"}
{"Molecule": "COC(=O)/C=C/CC[C@H](NC(=O)c1oc2ccccc2c1C)C(=O)Nc1cccn(CC(=O)NC23CC4CC(C)(CC(C)(C4)C2)C3)c1=O", "logD": "3 to 5"}
{"Molecule": "CCn1c(C(=O)N[C@@H](CC/C=C/C(=O)NC2CCCCC2)C(=O)Nc2cccn(CC(=O)NC34CC(C3)C4)c2=O)cc2ccccc21", "logD": "3 to 5"}
{"Molecule": "COC(=O)/C=C/CC[C@H](NC(=O)c1snnc1CO)C(=O)Nc1cccn(CC(=O)NC2C3CC4CC(C3)CC2C4)c1=O (stereo partly drawn)", "logD": "1 to 3"}
{"Molecule": "COC(=O)/C=C/CC[C@H](NC(=O)c1cc(Br)c(Br)s1)C(=O)Nc1cccn(CC(=O)NC2C3CC4CC(C3)CC2C4)c1=O (stereo partly drawn)", "logD": "3 to 5"}
